B1: ZER1 (parent)
chain: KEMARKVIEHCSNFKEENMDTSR

Variants of: B1
test_summary: protein stability index of a GFP-peptide fusion (GPS, HEK-293T) (PSI 1-6); higher = more stable;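 also: lentivirally expressed fusions sorted by FACS into six bins by GFP to DsRed ratio, PSI derived from sequencing read proportions per bin multiplied by bin number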
measurement_setup: c terminus: native
Entries and their measured protein stability index follow.

{"mutant": "K15Q", "protein stability index": 3.57}
{"mutant": "H10Q", "protein stability index": 3.83}
{"mutant": "S12T", "protein stability index": 3.59}
{"mutant": "N13Y", "protein stability index": 3.15}
{"mutant": "D20P", "protein stability index": 2.46}
{"mutant": "V7D", "protein stability index": 5.26}
{"mutant": "E2P", "protein stability index": 4.13}
{"mutant": "R23Q", "protein stability index": 5.31}
{"mutant": "R5M", "protein stability index": 3.13}
{"mutant": "N18F", "protein stability index": 3.07}
{"mutant": "F14C", "protein stability index": 3.91}
{"mutant": "K15W", "protein stability index": 2.85}
{"mutant": "D20I", "protein stability index": 1.52}
{"mutant": "E9D", "protein stability index": 4.11}
{"mutant": "V7P", "protein stability index": 4.46}
{"mutant": "K1M", "protein stability index": 2.75}
{"mutant": "E2Y", "protein stability index": 2.35}
{"mutant": "H10L", "protein stability index": 1.76}
{"mutant": "S12K", "protein stability index": 3.49}
{"mutant": "K15S", "protein stability index": 3.34}
{"mutant": "F14L", "protein stability index": 4.03}
{"mutant": "M3S", "protein stability index": 4.64}
{"mutant": "E9S", "protein stability index": 4.26}
{"mutant": "E2N", "protein stability index": 3.4}
{"mutant": "D20V", "protein stability index": 1.51}
{"mutant": "S22R", "protein stability index": 2.38}
{"mutant": "S22N", "protein stability index": 4.12}
{"mutant": "E16R", "protein stability index": 2.98}
{"mutant": "M19N", "protein stability index": 4.29}
{"mutant": "E9C", "protein stability index": 4.04}
{"mutant": "E17D", "protein stability index": 3.63}
{"mutant": "S22I", "protein stability index": 3.72}
{"mutant": "F14E", "protein stability index": 4.78}
{"mutant": "N18L", "protein stability index": 2.91}
{"mutant": "N13D", "protein stability index": 3.61}
{"mutant": "K1L", "protein stability index": 2.73}
{"mutant": "M3N", "protein stability index": 4.14}
{"mutant": "T21Q", "protein stability index": 3.84}
{"mutant": "N13I", "protein stability index": 1.93}
{"mutant": "E9W", "protein stability index": 1.55}
{"mutant": "M3P", "protein stability index": 4.78}
{"mutant": "N13W", "protein stability index": 2.4}
{"mutant": "R5E", "protein stability index": 4.72}
{"mutant": "E16L", "protein stability index": 2.52}
{"mutant": "K1W", "protein stability index": 2.98}
{"mutant": "S22Y", "protein stability index": 3.76}
{"mutant": "K1E", "protein stability index": 4.81}
{"mutant": "V7I", "protein stability index": 1.59}
{"mutant": "E9T", "protein stability index": 4.35}
{"mutant": "M19L", "protein stability index": 3.47}
{"mutant": "S22A", "protein stability index": 2.64}
{"mutant": "E9F", "protein stability index": 2.13}
{"mutant": "N18Y", "protein stability index": 3.08}
{"mutant": "H10R", "protein stability index": 3.59}
{"mutant": "E16N", "protein stability index": 3.19}
{"mutant": "H10E", "protein stability index": 3.69}
{"mutant": "M19H", "protein stability index": 3.77}
{"mutant": "R5D", "protein stability index": 4.9}
{"mutant": "E16Y", "protein stability index": 2.37}
{"mutant": "C11N", "protein stability index": 4.26}
{"mutant": "S22P", "protein stability index": 4.29}
{"mutant": "E17Y", "protein stability index": 2.41}
{"mutant": "K15R", "protein stability index": 2.8}
{"mutant": "I8W", "protein stability index": 1.86}
{"mutant": "V7T", "protein stability index": 4.89}
{"mutant": "C11I", "protein stability index": 2.02}
{"mutant": "T21R", "protein stability index": 1.65}
{"mutant": "T21M", "protein stability index": 4.41}
{"mutant": "M19G", "protein stability index": 3.37}
{"mutant": "K1N", "protein stability index": 4.24}
{"mutant": "E17P", "protein stability index": 2.93}
{"mutant": "M19C", "protein stability index": 3.51}
{"mutant": "F14V", "protein stability index": 4.94}
{"mutant": "V7F", "protein stability index": 3.83}
{"mutant": "N18H", "protein stability index": 3.47}
{"mutant": "R5L", "protein stability index": 2.74}
